TEST SYSTEM: E. coli dihydrofolate reductase (ecDHFR) (Escherichia coli, UniProt P0ABQ4)
Sequence (P0ABQ4 whole entry): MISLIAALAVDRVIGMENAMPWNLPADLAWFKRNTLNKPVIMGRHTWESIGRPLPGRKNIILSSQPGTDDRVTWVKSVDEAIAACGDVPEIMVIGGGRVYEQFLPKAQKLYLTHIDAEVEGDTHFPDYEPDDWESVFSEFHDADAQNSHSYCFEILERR
PROCEDURE TEXT: Isothermal titration calorimetry
Type: binding
CONDITION SET: Kd, ITC direct titration; no cofactor; pH 7.0; 25° C
ASSAY ENDPOINT: pKd
Numbers only, as −log10 of the molar value.

Ask: What measured pKd goes with [H]/N=C(/N)N/C(=N/[H])NCCc1ccccc1 [Phenformin, phenformin] ?
Reply: 3.15
